# Measurement target: human PI3Kα (Homo sapiens (Human))
# Sequence (P42336 whole entry): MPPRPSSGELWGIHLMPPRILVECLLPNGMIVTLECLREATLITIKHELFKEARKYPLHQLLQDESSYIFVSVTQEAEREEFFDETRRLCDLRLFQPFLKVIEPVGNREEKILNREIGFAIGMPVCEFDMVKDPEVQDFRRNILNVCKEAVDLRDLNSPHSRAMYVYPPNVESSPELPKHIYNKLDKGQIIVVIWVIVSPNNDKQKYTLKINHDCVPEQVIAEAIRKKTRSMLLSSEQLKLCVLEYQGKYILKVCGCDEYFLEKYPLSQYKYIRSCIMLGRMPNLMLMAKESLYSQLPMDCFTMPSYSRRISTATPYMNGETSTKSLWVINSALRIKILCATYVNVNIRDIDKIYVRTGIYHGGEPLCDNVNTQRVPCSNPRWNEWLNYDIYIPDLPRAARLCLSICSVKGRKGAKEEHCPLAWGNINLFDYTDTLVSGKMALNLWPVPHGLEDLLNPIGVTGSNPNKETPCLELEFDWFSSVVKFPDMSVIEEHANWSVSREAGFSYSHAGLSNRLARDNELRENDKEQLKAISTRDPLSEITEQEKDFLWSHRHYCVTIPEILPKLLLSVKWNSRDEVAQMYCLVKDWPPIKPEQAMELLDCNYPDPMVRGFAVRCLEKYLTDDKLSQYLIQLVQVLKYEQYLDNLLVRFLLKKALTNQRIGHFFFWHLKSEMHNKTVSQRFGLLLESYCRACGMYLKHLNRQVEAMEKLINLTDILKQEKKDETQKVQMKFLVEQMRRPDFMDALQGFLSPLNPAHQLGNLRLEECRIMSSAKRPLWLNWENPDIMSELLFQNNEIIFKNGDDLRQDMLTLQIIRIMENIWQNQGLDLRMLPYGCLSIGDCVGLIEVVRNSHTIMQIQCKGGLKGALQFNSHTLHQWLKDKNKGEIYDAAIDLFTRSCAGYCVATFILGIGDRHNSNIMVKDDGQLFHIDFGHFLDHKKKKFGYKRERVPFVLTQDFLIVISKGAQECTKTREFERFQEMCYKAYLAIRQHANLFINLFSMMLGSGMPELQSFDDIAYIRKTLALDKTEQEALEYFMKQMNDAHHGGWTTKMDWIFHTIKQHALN
# Sequence (P27986 whole entry partner): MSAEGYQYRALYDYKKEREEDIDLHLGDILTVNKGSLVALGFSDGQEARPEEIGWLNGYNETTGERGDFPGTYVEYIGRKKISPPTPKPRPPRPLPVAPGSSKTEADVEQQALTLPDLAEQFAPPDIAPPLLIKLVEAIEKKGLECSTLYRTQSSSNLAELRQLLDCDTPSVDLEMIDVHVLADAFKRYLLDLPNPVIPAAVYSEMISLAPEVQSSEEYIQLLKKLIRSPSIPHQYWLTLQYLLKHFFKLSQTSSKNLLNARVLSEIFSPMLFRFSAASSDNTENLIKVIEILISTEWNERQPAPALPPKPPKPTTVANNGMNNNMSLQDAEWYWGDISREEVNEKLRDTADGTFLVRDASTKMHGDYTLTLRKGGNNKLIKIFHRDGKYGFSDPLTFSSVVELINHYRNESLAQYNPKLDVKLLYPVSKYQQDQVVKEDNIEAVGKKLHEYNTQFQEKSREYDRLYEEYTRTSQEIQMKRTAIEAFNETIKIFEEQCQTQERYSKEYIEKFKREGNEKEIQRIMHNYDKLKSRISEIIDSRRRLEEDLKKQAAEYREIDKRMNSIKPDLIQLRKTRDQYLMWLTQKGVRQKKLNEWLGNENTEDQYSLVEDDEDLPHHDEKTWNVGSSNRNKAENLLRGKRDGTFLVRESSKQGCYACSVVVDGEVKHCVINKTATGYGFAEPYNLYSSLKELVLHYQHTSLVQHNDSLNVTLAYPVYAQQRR
# Procedure text: Human PI3Kα activity test (luciferin/luciferase ATP consumption, KinaseGlo)
# Type: biochemical
# Condition context: PI3Kα (p110α/p85α), 50 μM PIP2, 2 μM ATP, 90 minutes; read-out: IC50 Human PI3Kα
For each record, check the reported IC50: if it is below 2 µM write yes (1), else write no (0).

Some solved cases for reference:
{"columns": ["Molecule", "Label value"],
 "data": [
  ["O=c1cc(N2CC3CCC(C2)O3)nc2n1CC[C@@H](C(F)(F)F)N2CCc1ccc(O)cc1", "yes (1)"],
  ["CN(C)CCOc1ccc(CCN2c3nc(N4C[C@@H]5C[C@H]4CO5)cc(=O)n3CC[C@H]2C(F)(F)F)cc1", "yes (1)"],
  ["O=c1cc(N2C[C@@H]3C[C@H]2CO3)nc2n1CC[C@@H](C(F)(F)F)N2CCC(O)(C(F)(F)F)C(F)(F)F", "yes (1)"],
  ["O=C(CN1c2nc(N3C[C@@H]4C[C@H]3CO4)cc(=O)n2CC[C@H]1C(F)(F)F)c1ccc(F)cc1F", "no (0)"],
  ["O=C(CN1c2nc(N3C[C@@H]4C[C@H]3CO4)cc(=O)n2CC[C@H]1C(F)(F)F)N1CCOCC1", "no (0)"]
]}

Strictly below 2 µM: is that where IC50 of Nc1ccc(C(=O)CN2c3nc(N4CC5CC4CO5)cc(=O)n3CC[C@H]2C(F)(F)F)cn1 (stereo partly shown) sits?
no (0)

Then what about the molecule "C[C@@]1(C(F)(F)F)Cn2c(nc(N3C[C@@H]4C[C@H]3CO4)cc2=O)N1CC(=O)c1ccc(N)nc1" ?
no (0)

Then what about the molecule "CCC(O)(CC)CN1c2nc(N3C[C@@H]4C[C@H]3CO4)cc(=O)n2CC[C@H]1C(F)(F)F" ?
no (0)

----------
# Measurement target: human PI3Kα (Homo sapiens (Human))
# Procedure text: Human PI3Kα activity test (luciferin/luciferase ATP consumption, KinaseGlo)
# Assay type: biochemical
Can you tell me IC50 for the items I'm about to list?

{"columns": ["Molecule", "Observed property", "Reported value"],
 "data": [
  ["O=C(CN1c2nc(N3C4CCC3COC4)cc(=O)n2CC[C@H]1C(F)(F)F)c1cccnc1 [Compound 85]", "IC50", "> 10 µM"]
]}

Turning now to a further record.
Query (molecule): O=C(CN1c2nc(N3C[C@@H]4C[C@H]3CO4)cc(=O)n2CC[C@H]1C(F)(F)F)N1C2CCC1COC2 [Compound 99] ; field requested: IC50
> 10 µM

----------
# Measurement target: UniProtKB P42336
# Procedure text: Human PI3Kα activity test (luciferin/luciferase ATP consumption, KinaseGlo)
# Format: biochemical
# Condition context: PI3Kα (p110α/p85α), 50 μM PIP2, 2 μM ATP, 90 minutes; read-out: IC50 Human PI3Kα
Can you tell me pIC50 for the items I'm about to list?
Answers are plain numbers, as −log10 of the molar value.

Quick batch: pIC50 for everything below.
1. Cc1ncsc1CCN1c2nc(N3C[C@@H]4C[C@H]3CO4)cc(=O)n2C[C@@]1(C)C(F)(F)F [Compound 26]
2. C[C@@]1(C(F)(F)F)Cn2c(nc(N3C[C@@H]4C[C@H]3CO4)cc2=O)N1CCc1ccc(N)cc1 [Compound 32]
3. O=C(CN1c2nc(N3CC4CCC(C3)O4)cc(=O)n2CC[C@H]1C(F)(F)F)c1ccccn1 [Compound 88]
4. O=c1cc(N2CC3CCC(C2)O3)nc2n1CC[C@@H](C(F)(F)F)N2C[C@@H](O)c1cc2ccccc2s1 [Compound 82]
5. O=c1cc(N2C[C@@H]3C[C@H]2CO3)nc2n1CC[C@@H](C(F)(F)F)N2CC1(O)CC1 [Compound 104]

1: 5.70; 2: 5.43; 3: 5.89; 4: 6.47; 5: 6.03
